Data origin: ChEMBL document CHEMBL1275492

- Test system: Streptococcus constellatus
- assay info: Antibacterial activity against Streptococcus constellatus obtained from complicated skin and skin structure infections by agar dilution method
- Assay type: functional
MIC50: recorded values

Check out these entries, answers already filled in.
line notation	MIC50
CCC[C@@H]1C[C@@H](C(=O)N[C@@H]([C@H]2O[C@H](SC)[C@H](O)[C@@H](O)[C@H]2O)[C@H](C)Cl)N(C)C1	≤ 0.06 mg/L
CC[C@H]1OC(=O)[C@H](C)[C@@H](O[C@H]2C[C@@](C)(OC)[C@@H](O)[C@H](C)O2)[C@H](C)[C@@H](O[C@@H]2O[C@H](C)C[C@H](N(C)C)[C@H]2O)[C@](C)(O)C[C@@H](C)C(=O)[C@H](C)[C@@H](O)[C@]1(C)O	≤ 0.06 mg/L

Consider now this further molecule.
Need MIC50, item CC1(C)S[C@@H]2[C@H](NC(=O)Cc3ccccc3)C(=O)N2[C@H]1C(=O)O ≤ 0.03 mg/L

----------
- Test system: Enterobacter amnigenus
- assay info: Antibacterial activity against Enterobacter amnigenus obtained from complicated skin and skin structure infections by agar dilution method
- Type: functional
- experimental setup: Lelliottia amnigena
experimental endpoint: MIC90 (mg/L)
Numbers only here, please. The scale is mg/L.

compound	tested system	quantity unit	MIC90
NCC[C@H](O)C(=O)N[C@@H]1C[C@H](N)[C@@H](O[C@H]2O[C@H](CN)[C@@H](O)[C@H](O)[C@H]2O)[C@H](O)[C@H]1O[C@H]1O[C@H](CO)[C@@H](O)[C@H](N)[C@H]1O [AMIKACIN]	Enterobacter amnigenus	mg/L	8

Consider now this further compound.
Need MIC90, item C[C@H]1COc2c(N3CCN(C)CC3)c(F)cc3c(=O)c(C(=O)O)cn1c23.C[C@H]1COc2c(N3CCN(C)CC3)c(F)cc3c(=O)c(C(=O)O)cn1c23.O [LEVOFLOXACIN] 8
